biological target: mouse SAA1 (mSAA1) (Mus musculus, UniProt P05366); construct: hexa-histidine tag followed by thrombin cleavage site (N, cleaved yes); experiment: Fluorometric retinoid binding assay, mSAA1
measure name: Kd (nM)
A number alone suffices; assume nM.

Q: Return reported Kd. Input compound: CC1=C(/C=C/C(C)=C/C=C/C(C)=C/CO)C(C)(C)CCC1
A: 169

---

Target: mouse SAA1 (mSAA1) (Mus musculus)
Construct: hexa-histidine tag followed by thrombin cleavage site (N, cleaved yes); made in house; host or cells: Escherichia coli BL21-CodonPlus (DE3)-RILP
Sequence (P05366 20-122): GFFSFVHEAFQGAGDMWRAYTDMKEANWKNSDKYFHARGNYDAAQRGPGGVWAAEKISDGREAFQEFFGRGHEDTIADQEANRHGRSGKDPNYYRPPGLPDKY
Test: Fluorometric retinoid binding assay, mSAA1
Details: tryptophan fluorescence quenching, excitation 296 nm, emission 334 nm

[
  {
    "compound": "CC(=O)OC/C=C(C)/C=C/C=C(C)/C=C/C1=C(C)CCCC1(C)C [retinyl acetate]",
    "binding (in words)": "weak binding"
  },
  {
    "compound": "CC1=C(/C=C/C(C)=C/C=C/C(C)=C/C(=O)O)C(C)(C)CCC1",
    "binding (in words)": "weak binding"
  },
  {
    "compound": "CC1=C(/C=C/C(C)=C/C=C/C(C)=C/C=C/C=C(C)/C=C/C=C(C)/C=C/C2=C(C)CCCC2(C)C)C(C)(C)CCC1",
    "binding (in words)": "weak binding"
  }
]

These data points were gathered from paper PMC4129439.
